- procedure text: 14-day repeat dose IV toxicity study with toxicokinetic evaluation on Day 1 and Day 14 in rats
- Type: in vivo, Wistar rats
- reported conditions: rat, in vivo, iv, 10 mg/kg/day, IV 10 mg/kg/day, female, Day 14, read-out: Vz
Ends that are not written are not given here.
measurement type: Vd (L/kg)
Please give a number only; it is taken to be in L/kg.

Could you tell me which Vd is on file for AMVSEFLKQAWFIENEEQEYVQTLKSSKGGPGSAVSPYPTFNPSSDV-NH2 [Peptide 1] ?
0.168

----------
- procedure text: 14-day repeat dose IV toxicity study with toxicokinetic evaluation on Day 1 and Day 14 in rats
- Assay type: in vivo, Wistar rats
- reported conditions: rat, in vivo, iv, 1 mg/kg/day, IV 1.0 mg/kg/day, male, Day 1
Ends that are not written are not given here.
measurement type: C0 (ng/mL)
Please give a number only; it is taken to be in ng/mL.

Could you tell me which C0 is on file for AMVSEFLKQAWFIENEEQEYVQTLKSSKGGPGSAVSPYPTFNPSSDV-NH2 [Peptide 1] ?
9960

----------
- procedure text: 14-day repeat dose IV toxicity study with toxicokinetic evaluation on Day 1 and Day 14 in rats
- Assay type: in vivo, Wistar rats
- reported conditions: rat, in vivo, iv, 1 mg/kg/day, IV 1.0 mg/kg/day, female, Day 1
Ends that are not written are not given here.
measurement type: clearance (mL/min/kg)
Please give a number only; it is taken to be in mL/min/kg.

Could you tell me which clearance is on file for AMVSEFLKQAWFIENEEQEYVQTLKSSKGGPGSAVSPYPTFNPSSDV-NH2 [Peptide 1] ?
18.1

----------
- procedure text: 14-day repeat IV dose toxicity study with toxicokinetic evaluation on Day 1 and 14 in dogs
- Assay type: in vivo, beagle dogs
- reported conditions: dog, in vivo, iv, 3 mg/kg/day, IV 3.0 mg/kg/day, female, Day 1, read-out: Vz
Ends that are not written are not given here.
measurement type: Vd (L/kg)
Please give a number only; it is taken to be in L/kg.

Could you tell me which Vd is on file for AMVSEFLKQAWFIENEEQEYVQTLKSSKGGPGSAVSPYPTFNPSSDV-NH2 [Peptide 1] ?
0.248

----------
- procedure text: Clinical test in humans, single 30-min i.v. infusion, plasma PK
- Assay type: in vivo
- reported conditions: human, in vivo, iv, single 30-min i.v. infusion 400 μg/kg, GM
- Method: A total of 8 healthy subjects were included in each group. […] In these groups, 6 subjects received the active treatment (i.e. a single Peptide 1 30-min intravenous (i.v.) infusion corresponding to the above doses) and 2 received the placebo. In order to prevent any anticipated unblinding, the subjects under active treatment were recorded by the bioanalytical laboratory. […]
Ends that are not written are not given here.
measurement type: AUC(0-inf)
Please answer in the form of a number followed by its unit of measurement.

Could you tell me which AUC(0-inf) is on file for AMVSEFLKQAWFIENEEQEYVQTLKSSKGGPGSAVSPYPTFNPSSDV-NH2 [Peptide 1] ?
4840 ng·h/mL

----------
- procedure text: PK after single intravenous injection of Peptide 1 in male rats
- Set-up: species or system male Wistar (CRL: WI(Han)) rats
- reported conditions: rat, in vivo, iv, 10 mg/kg, single IV 10 mg/kg, terminal elimination phase, read-out: CL
- Method: Peptide 1 in blood samples collected from animals used in the studies (rat and dog) has been measured by an LC-MS/MS method. Analysis of samples collected in the pharmacokinetic study in rats was performed prior to validation of the method. […] Peptide 1 was quantifiable in all plasma samples in the study. […] Plasma samples obtained 60 minutes post dosing in Group 1 had plasma concentration of Peptide 1 below the limit of quantification.
Ends that are not written are not given here.
measurement type: clearance (mL/min/kg)
Please give a number only; it is taken to be in mL/min/kg.

Could you tell me which clearance is on file for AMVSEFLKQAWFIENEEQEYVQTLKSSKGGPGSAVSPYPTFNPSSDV-NH2 [Peptide 1] ?
11.1

----------
- procedure text: Clinical test in humans, three 30-min i.v. infusions 8 hours apart, plasma PK
- Format: in vivo
- reported conditions: human, in vivo, iv, 50 ug/kg, three 30-min i.v. infusions 8 h apart, 50 μg/kg each, GM, read-out: AUC0-t3
Ends that are not written are not given here.
measurement type: AUC

Could you tell me which AUC is on file for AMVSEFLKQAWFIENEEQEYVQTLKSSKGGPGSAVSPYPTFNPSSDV-NH2 [Peptide 1] ?
433 ng·h/mL

----------
- procedure text: Clinical test in humans, three 30-min i.v. infusions 8 hours apart, plasma PK
- Type: in vivo
- reported conditions: human, in vivo, iv, three 30-min i.v. infusions 8 h apart, 100 μg/kg each, mean, read-out: AUC0-tau2
Ends that are not written are not given here.
measurement type: AUC (µg·h/mL)
Please give a number only; it is taken to be in µg·h/mL.

Could you tell me which AUC is on file for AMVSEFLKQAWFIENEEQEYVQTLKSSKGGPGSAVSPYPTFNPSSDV-NH2 [Peptide 1] ?
1.24

----------
- procedure text: Clinical test in humans, single 30-min i.v. infusion, plasma PK
- Assay type: in vivo
- reported conditions: human, in vivo, iv, single 30-min i.v. infusion 50 μg/kg, GM
Ends that are not written are not given here.
measurement type: Vd (L/kg)
Please give a number only; it is taken to be in L/kg.

Could you tell me which Vd is on file for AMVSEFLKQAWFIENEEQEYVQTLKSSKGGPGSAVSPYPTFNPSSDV-NH2 [Peptide 1] ?
0.14

----------
- procedure text: Clinical test in humans, single 30-min i.v. infusion, plasma PK
- Format: in vivo
- reported conditions: human, in vivo, iv, single 30-min i.v. infusion 25 μg/kg, mean, read-out: t1/2 (converted)
Ends that are not written are not given here.
measurement type: half-life (min)
Please give a number only; it is taken to be in min.

Could you tell me which half-life is on file for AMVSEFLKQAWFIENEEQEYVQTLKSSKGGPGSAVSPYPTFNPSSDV-NH2 [Peptide 1] ?
47.4

----------
- procedure text: PK after single intravenous injection of Peptide 1 in male rats
- Parameters: species or system male Wistar (CRL: WI(Han)) rats
- reported conditions: rat, in vivo, single IV 0.1 mg/kg, initial elimination phase
Ends that are not written are not given here.
measurement type: AUC(0-t) (ng·h/mL)
Please give a number only; it is taken to be in ng·h/mL.

Could you tell me which AUC(0-t) is on file for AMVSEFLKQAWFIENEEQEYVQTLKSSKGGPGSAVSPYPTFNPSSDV-NH2 [Peptide 1] ?
165

----------
- procedure text: Clinical test in humans, single 30-min i.v. infusion, plasma PK
- Assay type: in vivo
- reported conditions: human, in vivo, iv, 200 ug/kg, single 30-min i.v. infusion 200 μg/kg, GM
Ends that are not written are not given here.
measurement type: AUC(0-inf) (ng·h/mL)
Please give a number only; it is taken to be in ng·h/mL.

Could you tell me which AUC(0-inf) is on file for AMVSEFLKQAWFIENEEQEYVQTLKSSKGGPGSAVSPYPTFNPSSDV-NH2 [Peptide 1] ?
2280

----------
- procedure text: Clinical test in humans, single 30-min i.v. infusion, plasma PK
- Type: in vivo
- reported conditions: human, in vivo, iv, 200 ug/kg, single 30-min i.v. infusion 200 μg/kg, GM, read-out: AUC0-t
- Experimental: A total of 8 healthy subjects were included in each group. […] In these groups, 6 subjects received the active treatment (i.e. a single Peptide 1 30-min intravenous (i.v.) infusion corresponding to the above doses) and 2 received the placebo. In order to prevent any anticipated unblinding, the subjects under active treatment were recorded by the bioanalytical laboratory. […]
Ends that are not written are not given here.
measurement type: AUC(0-t) (ng·h/mL)
Please give a number only; it is taken to be in ng·h/mL.

Could you tell me which AUC(0-t) is on file for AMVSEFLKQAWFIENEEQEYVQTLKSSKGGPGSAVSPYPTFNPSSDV-NH2 [Peptide 1] ?
2120

----------
- procedure text: Clinical test in humans, three 30-min i.v. infusions 8 hours apart, plasma PK
- Assay type: in vivo
- reported conditions: human, in vivo, iv, three 30-min i.v. infusions 8 h apart, 50 μg/kg each, GM, read-out: AUC0-tau1
Ends that are not written are not given here.
measurement type: AUC
Please answer in the form of a number followed by its unit of measurement.

Could you tell me which AUC is on file for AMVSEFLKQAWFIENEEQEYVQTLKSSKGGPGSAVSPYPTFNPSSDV-NH2 [Peptide 1] ?
509 ng·h/mL

----------
- procedure text: PK after single intravenous injection of Peptide 1 in male rats
- Set-up: species or system male Wistar (CRL: WI(Han)) rats
- reported conditions: rat, in vivo, iv, 1 mg/kg, single IV 1.0 mg/kg, terminal elimination phase, read-out: T½
Ends that are not written are not given here.
measurement type: half-life

Could you tell me which half-life is on file for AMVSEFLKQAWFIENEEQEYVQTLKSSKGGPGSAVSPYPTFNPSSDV-NH2 [Peptide 1] ?
10 min
